assay_notes: chemical genetic growth profiling, strain panel (AID 1159580);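 note: tested at 20 µM; growth read once vehicle control cultures reached saturation at 30 °C; 1 = growth at the plate median or of vehicle wells; lower values mean less growth of the strain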
condition_summary: S. cerevisiae deletion strains, growth OD, locus YBR023C, strain chs3
The campaign covered roughly 5,500 compounds. About 2,000 (36%) were called active. Not shown: some 18% with an inconclusive outcome. Cut-off read from the data, not from the text of the source: active = normalized growth mostly below about 0.91 (no sharp cut-off); inconclusive = no clear call, values can overlap the other calls; inactive = mostly above about 0.92. The list shows a part of the results.
Labels: 1.0 for active, 0.0 for inactive

{"compound": "C[C@H]1COc2c(N3CCN(C)CC3)c(F)cc3c(=O)c(C(=O)O)cn1c23", "answer_label": 0.0}
{"compound": "COc1ccc(OC)c(C(O)CNC(=O)CN)c1 (stereo not given)", "answer_label": 0.0}
{"compound": "CC1COc2c(N3CCN(C)CC3)c(F)cc3c(=O)c(C(=O)O)cn1c23 (stereo not given)", "answer_label": 0.0}
{"compound": "CN1CCC(OC(c2ccccc2)c2ccccc2)CC1", "answer_label": 0.0}
{"compound": "CCCCCCCCCCCCCc1ccco1", "answer_label": 0.0}
{"compound": "Clc1ccc(C(OCCN2CCCCC2)c2ccccc2)cc1 (stereo not given)", "answer_label": 0.0}
{"compound": "COc1cc(CNC(=O)CCCC/C=C/C(C)C)ccc1O", "answer_label": 0.0}
{"compound": "Nc1nc(=S)c2[nH]cnc2[nH]1", "answer_label": 0.0}
{"compound": "Cc1ccc(C(=O)Nc2ccc(S(=O)(=O)O)c3cc(S(=O)(=O)O)cc(S(=O)(=O)O)c23)cc1NC(=O)c1cccc(NC(=O)Nc2cccc(C(=O)Nc3cc(C(=O)Nc4ccc(S(=O)(=O)O)c5cc(S(=O)(=O)O)cc(S(=O)(=O)O)c45)ccc3C)c2)c1", "answer_label": 0.0}
{"compound": "Cc1ncc(CNC(=O)N(CCCl)N=O)c(N)n1", "answer_label": 0.0}
{"compound": "CCOC(=O)n1ccn(C)c1=S", "answer_label": 0.0}
{"compound": "COc1c(N2CCNC(C)C2)c(F)cc2c(=O)c(C(=O)O)cn(C3CC3)c12 (stereo not given)", "answer_label": 0.0}
{"compound": "CC1CCc2cc(F)cc3c(=O)c(C(=O)O)cn1c23 (stereo not given)", "answer_label": 0.0}
{"compound": "COc1ccc(-c2coc3cc(O)ccc3c2=O)c(OC)c1", "answer_label": 0.0}
{"compound": "CN(C)CCN(Cc1ccccc1)c1ccccn1", "answer_label": 0.0}
{"compound": "O=C(O[C@@H]1Cc2c(O)cc(O)cc2O[C@@H]1c1ccc(O)c(O)c1)c1cc(O)c(O)c(O)c1", "answer_label": 1.0}
{"compound": "CN1C2CCC1CC(OC(c1ccccc1)c1ccccc1)C2 (stereo not given)", "answer_label": 0.0}
{"compound": "O=S(=O)(O)c1cc(N=C=S)ccc1/C=C/c1ccc(N=C=S)cc1S(=O)(=O)O", "answer_label": 0.0}
{"compound": "COc1ccc(-c2coc3cc(O)ccc3c2=O)cc1", "answer_label": 0.0}
{"compound": "NS(=O)(=O)c1cc2c(cc1Cl)NC=NS2(=O)=O", "answer_label": 0.0}

All values here come from PubChem BioAssay AID1159580.
